Reported values of EC50 for individual entries
- Tested target: full-length beta-Catenin (Uniprot ID P35222) (Homo sapiens (Human)) (UniProt P35222)
- Sequence (P35222 2-781 limits assumed): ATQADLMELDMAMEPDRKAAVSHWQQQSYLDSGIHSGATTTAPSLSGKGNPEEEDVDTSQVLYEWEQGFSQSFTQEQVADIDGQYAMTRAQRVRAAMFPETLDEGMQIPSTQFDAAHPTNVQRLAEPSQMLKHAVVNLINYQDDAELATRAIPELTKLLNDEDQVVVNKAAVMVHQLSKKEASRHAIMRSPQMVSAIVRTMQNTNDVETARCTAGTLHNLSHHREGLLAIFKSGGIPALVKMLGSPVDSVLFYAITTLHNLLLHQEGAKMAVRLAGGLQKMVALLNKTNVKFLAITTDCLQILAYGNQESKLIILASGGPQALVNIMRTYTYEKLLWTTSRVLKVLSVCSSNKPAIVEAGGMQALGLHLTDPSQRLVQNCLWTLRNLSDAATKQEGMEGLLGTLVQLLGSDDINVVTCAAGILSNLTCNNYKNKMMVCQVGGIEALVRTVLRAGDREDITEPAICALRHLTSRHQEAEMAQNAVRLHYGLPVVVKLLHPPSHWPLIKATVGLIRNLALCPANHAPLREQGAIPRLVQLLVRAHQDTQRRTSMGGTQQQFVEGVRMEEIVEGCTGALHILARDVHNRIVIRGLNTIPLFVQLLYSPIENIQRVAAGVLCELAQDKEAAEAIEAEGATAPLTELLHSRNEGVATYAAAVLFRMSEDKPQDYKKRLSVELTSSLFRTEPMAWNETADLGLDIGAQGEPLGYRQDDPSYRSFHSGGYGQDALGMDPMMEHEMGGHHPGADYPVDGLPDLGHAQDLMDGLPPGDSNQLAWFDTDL
- Assay comment: fluorescence polarization competition: peptide titrated against 10 nM full-length beta-catenin + 10 nM 5FAM-TCF4(10-53) probe
Starred links: 1 amine or outer side, 2 acyl side, 3 side chain; linkers in the order of their positions; H or OH if unused. Positions of bridges follow the written chain, without caps; N, C: chain ends. Non-standard residues stand in square brackets, D forms with d. Primed or numbered codes have the meaning given here. PyrS2″ = (S)-3-amino-1-((pent-4-en-1-yloxy)carbonyl)pyrrolidine-3-carboxylic acid (stapling residue), C=CCCCOC(=O)N1CC[C@@](N[*:1])(C(=O)[*:2])C1; B5(4) = 2,2-bis(4-pentenyl)glycine = 2-amino-2-(pent-4-en-1-yl)hept-6-enoic acid (stitching residue), C=CCCCC(CCCC=C)(N[*:1])C(=O)[*:2]; PyrS2 = (S)-3-amino-1-((pent-4-en-1-yloxy)carbonyl)pyrrolidine-3-carboxylic acid, C=CCCCOC(=O)N1CC[C@@](N[*:1])(C(=O)[*:2])C1; B5(13) = 2-amino-2-(pent-4-en-1-yl)hept-6-enoic acid (two alkene chains), C=CCCCC(CCCC=C)(N[*:1])C(=O)[*:2]; B5 = 2-amino-2-(pent-4-en-1-yl)hept-6-enoic acid, C=CCCCC(CCCC=C)(N[*:1])C(=O)[*:2]; Phe(2-OMe) = COc1ccccc1C[C@H](N)C(=O)O; Phe(2-Me) = Cc1ccccc1C[C@H](N)C(=O)O; Bta = N[C@@H](Cc1csc2ccccc12)C(=O)O; αAllylPro = C=CC[C@@]1(C(=O)O)CCCN1; tBuAla = CC(C)(C)C[C@H](N)C(=O)O; 3Thi = N[C@@H](Cc1ccsc1)C(=O)O; Cit = NC(=O)NCCC[C@H](N)C(=O)O
Please give the number followed by its unit.

Ac-[αAllylPro]D[tBuAla][B5]DDAAFL[PyrS2][3Thi][Bta]H-NH2 (staple 1-4, 4-11) [I-802]	6 nM
Ac-[αAllylPro]D[tBuAla][B5(4)]DDAAFN[PyrS2][Bta][Bta]H-NH2 (staple 1-4, 4-11) [I-793]	14 nM
Ac-[αAllylPro]D[tBuAla][B5(13)]DDAAFN[PyrS2][Phe(2-Me)][Bta]H-NH2 (staple 1-4, 4-11) [I-782]	6 nM
Ac-[αAllylPro]D[tBuAla][B5(13)]DDAAFN[PyrS2][Phe(2-OMe)][Bta]H-NH2 (staple 1-4, 4-11) [I-781]	5 nM

API: the following record is the query input.
Prompt: Any idea what its EC50 is? The binder is Ac-[αAllylPro]D[tBuAla][B5(4)]DDAAF[Cit][PyrS2″][3Thi][Bta]H-NH2 (staple 1-4, 4-11) [I-806]
Completion: 5 nM

Every entry's value here was drawn from patent US20240116985A1.
